Target: human CCR1 (Homo sapiens, UniProt P32246)
Construct: expressed in transfected cells; host or cells: HEK-293
Sequence (P32246 1-355): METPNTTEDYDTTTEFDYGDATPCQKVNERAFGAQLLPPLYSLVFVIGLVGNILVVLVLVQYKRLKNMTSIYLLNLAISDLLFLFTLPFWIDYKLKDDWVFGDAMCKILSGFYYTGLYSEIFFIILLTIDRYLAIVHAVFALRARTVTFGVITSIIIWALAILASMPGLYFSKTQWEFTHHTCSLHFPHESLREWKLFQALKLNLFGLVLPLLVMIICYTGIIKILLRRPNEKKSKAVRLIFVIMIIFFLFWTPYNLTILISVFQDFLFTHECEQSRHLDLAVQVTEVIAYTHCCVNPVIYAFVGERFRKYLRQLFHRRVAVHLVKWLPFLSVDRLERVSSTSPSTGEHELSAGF
Assay: RANTES-induced CCR1/HEK-293 transfectant migration
Assay type: cell-based
Settings: ≦ 5% standard error; NA = not active; read-out: IC50 (μM) RANTES-Induced CCRI/HEK Migration
Assay Endpoint: IC50 (µM)
Answers are plain numbers, in µM.

Sample records with IC50:
CC(C)CCCC(C)[C@H]1CCC2C3CCC4C[C@@H](CCC=C(c5cc(Cl)c(OCc6ccc(-c7cccc(C(=O)O)c7)cc6)c(C(=O)O)c5)c5cc(Cl)c(OCc6ccc(-c7cccc(C(=O)O)c7)cc6)c(C(=O)O)c5)CC[C@]4(C)C3CC[C@@]21C (some centres unmarked) | 9.1
CC(C)CCCC(C)[C@H]1CCC2C3CCC4C[C@@H](CCC=C(c5cc(Cl)c(OCc6cccc(B(O)O)c6)c(C(=O)O)c5)c5cc(Cl)c(OCc6cccc(B(O)O)c6)c(C(=O)O)c5)CC[C@]4(C)C3CC[C@@]21C (some centres unmarked) | 4
CC(C)CCCC(C)[C@H]1CCC2C3CCC4C[C@@H](CCC=C(c5cc(Cl)c(OCc6cccc(C(=O)O)c6)c(C(=O)O)c5)c5cc(Cl)c(OCc6cccc(C(=O)O)c6)c(C(=O)O)c5)CC[C@]4(C)C3CC[C@@]21C (some centres unmarked) | 10
CC(C)CCCC(C)[C@H]1CCC2C3CCC4C[C@@H](CCC=C(c5cc(Cl)c(OCc6ccccc6C(=O)O)c(C(=O)O)c5)c5cc(Cl)c(OCc6ccccc6C(=O)O)c(C(=O)O)c5)CC[C@]4(C)C3CC[C@@]21C (some centres unmarked) | 0.26

Record CC(C)CCC[C@@H](C)[C@H]1CC[C@H]2[C@@H]3CC[C@H]4C[C@@H](CCC=C(c5cc(Cl)c(O)c(C(=O)O)c5)c5cc(Cl)c(O)c(C(=O)O)c5)CC[C@]4(C)[C@H]3CC[C@]12C . Reported IC50: 0.26
